- TEST TARGET: Recombinant (1-346) HPK1 (h) (Homo sapiens)
- Construct: Recombinant (1-346) HPK1 (h) is incubated with 8 mM MOPS pH 7.0
- Sequence (Q92918 1-346): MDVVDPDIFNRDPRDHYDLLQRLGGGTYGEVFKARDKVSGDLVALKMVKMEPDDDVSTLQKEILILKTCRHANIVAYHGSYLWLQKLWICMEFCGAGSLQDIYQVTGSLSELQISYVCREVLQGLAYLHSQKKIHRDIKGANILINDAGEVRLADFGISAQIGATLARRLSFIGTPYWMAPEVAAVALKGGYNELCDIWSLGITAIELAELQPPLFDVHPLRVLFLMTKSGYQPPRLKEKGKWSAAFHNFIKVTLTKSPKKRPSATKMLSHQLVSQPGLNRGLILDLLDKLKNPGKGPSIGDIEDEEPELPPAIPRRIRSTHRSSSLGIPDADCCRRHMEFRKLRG
- PROTOCOL TEXT: HPK1 human STE kinase enzymatic radiometric assay
- Type: biochemical
- COND: read-out: HPK1 IC50 nM Range
READOUT NAME: IC50

Form field: reported IC50 of C[C@@H]1CN(c2ccc(-c3nc(-c4ccc5c(=O)[nH]cc(F)c5c4)c(N)nc3F)cc2)C[C@H](C)N1C [Example I-93]
0.1 to 10 nM

Cited source for all entries: patent US20240425479A1
